System: VchCAST RNA-guided transposition machinery (E. coli BL21(DE3) host, lacZ target)
Assay: relative integration efficiency (T-LR orientation) vs wild-type transposon end (log2 (normalized fold change)); transposon end mutated: right end (5 bp flank + 75 bp right end); higher = more efficient transposition
propertyName: relative integration efficiency (log2)

• ACATTTGTGGATACAACCATAAAATGATAATTACACCCATAAATTCATCATTATCACACCCAATTTAACTATAACGCTCTGATCATAGTCAGACCAACATTGCTACGACCCGTATTCGCACCGACAC = 1.48
• ACATTTGTGGATACAACCATAAAATGATAATTACACCCATAAATGGATCATTATCACCCCCAATTTAACTATAACGCTCTGATCATAGTCAGACCAACATTGCTACGACCCGTATTCGCACCGACAC = 1.36
• ACATTTGTTGATACAACCATTAAATGATAATTACACCCATAAATTGATAATGATGACACCGAATTTAACTATAACGCTCTGATCATAGTCAGACCAACATTGCTACGACCCGTATTCGCACCGACAC = 1.9
• ACATTTGTTGATACAACCATAAAATGATAATTACACCCATAATATGATAATTATCACACCCATAAATTGATATTGCCTCTGATCATAGTCAGACCAACATTGCTACGACCCGTATTCGCACCGACAC = -0.175

###

As shown below, each of these sequences has a reported relative integration efficiency (log2) value.
System: VchCAST RNA-guided transposition machinery (E. coli BL21(DE3) host, lacZ target)
Assay: relative integration efficiency (T-RL orientation) vs wild-type transposon end (log2 (normalized fold change)); transposon end mutated: right end (5 bp flank + 75 bp right end); higher = more efficient transposition
propertyName: relative integration efficiency (log2)

* ACATTTGTTGATACAACCATAACCTGATAATTACACCCATAACGTGATAATTATCACACCCATAACGTGATATTGCCTCTGATCATAGTCAGACCAACATTGCTACGACCCGTATTCGCACCGACAC | -0.513
* ACATTTGTTGATACAACCATAAAGTGATATTTACAACCATATATTGATATCTCTCACAACCATAAGTTGATATTTTCTCTGATCATAGTCAGACCAACATTGCTACGACCCGTATTCGCACCGACAC | -0.0164
* ACATTTGTTGATACACCCATAAATTGATATTGCCACCCATAAATTGATAATTATCACAACCATAAAATGATAATTACTCTGATCATAGTCAGACCAACATTGCTACGACCCGTATTCGCACCGACAC | -0.382
* ACATTTGTTGATACAACCATAAAATGATAATTACACCCATAAATTGATAATTATCACACCCATAAATTGATATTGCCTCTGATCATAGTCAGACCAACCATAAAATGATAATTACAAGCACCGACAC | -0.253
* ACATTTGTTGATACAACCATAAAATTATTATTACACCCATTAATTGATAATTATCACACCCAATTTAACTATAACGCTCTGATCATAGTCAGACCAACATTGCTACGACCCGTATTCGCACCGACAC | -2.35
* ACATTTGTTGATACAACCATACCCTGATAATTACACCCATACCGTGATAATTATCACACCCATACCGTGATATTGCCTCTGATCATAGTCAGACCAACATTGCTACGACCCGTATTCGCACCGACAC | -4.24
* ACATTTGTTGATACACCCATAAATTGATATTGCCAACCATAAGTTGATATTTTTCACAACCATAAAGTGATATTTACTCTGATCATAGTCAGACCAACATTGCTACGACCCGTATTCGCACCGACAC | -0.583
* ACATTTGTTGATACAACCATCAAATGGTAATTACACCCATACATTGATAATTATCACACCCAATTTAACTATAACGCTCTGATCATAGTCAGACCAACATTGCTACGACCCGTATTCGCACCGACAC | -4.04
* ACATTTGTTGATACAACCATAAAATGATCATTACACCCATCAATTGATAATTATCCCACCCAATTTAACTATAACGCTCTGATCATAGTCAGACCAACATTGCTACGACCCGTATTCGCACCGACAC | -2.65
* ACATTTGTTGATACAACCATAAAATGTTAATTACACCCATAAATTGTTAATTATCACACCCATAAATTGTTATTGCCTCTGATCATAGTCAGACCAACATTGCTACGACCCGTATTCGCACCGACAC | -2.33
* ACATTTGTTGATACAACCATAAAATGATAATTACACCCATAAATTGATAATTATCACACCCATAAATTGATATTTAAGAGGATCATAGTCAGACCAACATTGCTACGACCCGTATTCGCACCGACAC | 0.179
* ACATTTGTCGATACAACCCTAAAATGATAATTACACCCATAAATTCATAATTATCACACCCAATTTAACTATAACGCTCTGATCATAGTCAGACCAACATTGCTACGACCCGTATTCGCACCGACAC | -4.55
* ACATTTGTTGATACAACCATAAAATGATCATTACACCCATAAATTGATAATTATCACACCCCATTTAACTATAACGCTCTGATCATAGTCAGACCAACATTGCTACGACCCGTATTCGCACCGACAC | -2.04
* ACATTTGTACTAACAACCATAAAATGATAATTACACCCATAAATTGATAATTATCACACCCATAAATTGATATTGCCTCTGATCATAGTCAGACCAACATTGCTACGACCCGTATTCGCACCGACAC | -1.43
* ACATTAGTCGATACAACCATAAAATGATAATTACACCCATAAATGGATCATTATCACACCCAATTTAACTATAACGCTCTGATCATAGTCAGACCAACATTGCTACGACCCGTATTCGCACCGACAC | -8.21
* ACATTTGTTGATACAACCATAAAATGCGCCTTACACCCATAAATTGATAATTATCACACCCATAAATTGATATTGCCTCTGATCATAGTCAGACCAACATTGCTACGACCCGTATTCGCACCGACAC | -1.4
* ACATTTGTTGATACAACCATAAAATGATAATTACACCCATAAATTGATAATTATCACACCCATAAATTGATATTGCCGAGGATCATAGTCAGACCAACATTGCTACGACCCGTATTCGCACCGACAC | 0.325
* ACATTTGTGGATACAACCATAAAACGATAATTACACCCATAAATTGATCATTATCACACCCAATTTAACTATAACGCTCTGATCATAGTCAGACCAACATTGCTACGACCCGTATTCGCACCGACAC | -1.43
* ACATTTGTTGATACAACCATAAAATGATAATTACACCCATAAATTGATAATTATCCACCCATAAATTGATATTGCCTCTGATCATAGTCAGACCAACATTGCTACGACCCGTATTCGCACCGACACT | -0.433

Source: the supplement of paper PMC10201428
